Test system: antigen-specific T cell activation
Assay: antigen-specific (mBSA) activation of splenic T lymphocytes, 3H-thymidine incorporation
Assay type: cell-based, mice
Conditions: Mus musculus, T-cell, mBSA 50 μg/ml; read-out: EC50, inhibition of T cell activation
Please provide measured pEC50 for the entries that follow.
Answers are plain numbers, as −log10 of the molar value.

# annotated cases, reported pEC50 shown
>  <compound>
O=C(NC(CO)C(=O)O)c1ccc2[nH]c(=O)[nH]c2c1 (stereo not shown)

>  <system>
antigen-specific T cell activation

>  <pEC50>
4.11

$$$$
>  <compound>
COC(=O)C(CO)NC(=O)c1ccc2[nH]c(=O)[nH]c2c1 (stereo not shown)

>  <system>
antigen-specific T cell activation

>  <pEC50>
4.21

$$$$
>  <compound>
Cc1cc2[nH]c(=O)[nH]c2cc1O [Compound 18, 5-Hydroxy-6-methybenzimidazol-2-one]

>  <system>
antigen-specific T cell activation

>  <pEC50>
4.47

$$$$
>  <compound>
CCCCCOC(=O)c1ccc2[nH]c(=S)[nH]c2c1

>  <system>
antigen-specific T cell activation

>  <pEC50>
4.99

$$$$

Quick one: pEC50 for `CCCCCc1ccc2[nH]c(=O)[nH]c2c1` ?
4.30
